Reported values of glycan array binding signal (z-score) for individual entries
# assay_target: Fuc(a1-2)[Gal(a1-3)]Gal(b1-4)GlcNAc(b1-2)Man(a1-3)[Fuc(a1-2)[Gal(a1-3)]Gal(b1-4)GlcNAc(b1-2)Man(a1-6)]Man(b1-4)GlcNAc(b1-4)GlcNAc
# experimental_protocol: glycan array binding signal (z-score within array); higher = stronger binding
# condition_label: glycan notation: IUPAC condensed, linker removed
About 410 targets per protein were measured; listed, in parts, are those with the strongest signals and a random draw of the rest.

binder	glycan array binding signal (z-score)
Microvirin-2 (Microcystis aeruginosa) (protein) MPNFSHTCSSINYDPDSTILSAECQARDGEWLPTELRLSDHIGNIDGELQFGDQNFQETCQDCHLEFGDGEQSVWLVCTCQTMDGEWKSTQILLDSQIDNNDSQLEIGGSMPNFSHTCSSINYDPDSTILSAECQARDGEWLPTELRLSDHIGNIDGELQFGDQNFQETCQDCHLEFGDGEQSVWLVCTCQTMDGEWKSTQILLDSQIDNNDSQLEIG	-0.113
Neuropilin-1 (Homo sapiens), O14786 (protein) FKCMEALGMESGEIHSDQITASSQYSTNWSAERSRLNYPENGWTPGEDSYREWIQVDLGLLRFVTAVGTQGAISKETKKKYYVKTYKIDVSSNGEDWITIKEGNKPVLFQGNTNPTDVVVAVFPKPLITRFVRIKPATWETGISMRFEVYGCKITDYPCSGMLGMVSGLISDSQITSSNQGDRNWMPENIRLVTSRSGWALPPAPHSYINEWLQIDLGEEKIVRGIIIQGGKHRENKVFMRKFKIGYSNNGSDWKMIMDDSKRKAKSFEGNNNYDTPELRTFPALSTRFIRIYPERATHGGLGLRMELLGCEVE	6.43
